Tested on: BDF1 mice, P388 leukemia ip, median survival T/C
TEST_DESCRIPTION: NCI In Vivo Anticancer Drug Screen. Data for tumor model P388 Leukemia (intraperitoneal) in B6D2F1 (BDF1) mice
TEST_CONDITIONS: endpoint: median survival time; dose: 200.0 mg/kg/injection; schedule: Q01DX009 (ip); vehicle: Klucel (hydroxypropylcellulose) (HPC)
Inconclusive results and toxic doses are left out. How the source made its calls: active means survival T/C of 150% or more; inactive means T/C below 125% in these data.
Your answer must be one of the following: active, inactive

Example results:
compound=CCOC(=O)C(=O)c1c[nH]c2ccccc12 label_class=inactive
compound=CCOC(CNC(=O)OCc1ccccc1)OCC label_class=inactive
compound="C1=CCC(C2OCC3(CO2)COC(C2CC=CCC2)OC3)CC1 (centres undefined)" label_class=inactive
compound="CC(=O)Oc1c(C)c2c(O)c3c1C1=C(OCOC1=C(C)C3=O)C(C)=CC(C)(O)C(O)C(C)C(O)C1C(=O)OC(C(C)/C=C\\C=C(C)C(=O)N2)C(C)C1O (centres undefined)" label_class=inactive
compound=NC(=O)C(N)=O label_class=inactive

Task: For "O=c1[nH]cc(CCc2ccccc2)c(=O)[nH]1" , which call appears in the assay record?
Output: inactive

Task: For O=C1NCC(COc2ccc(Cl)cc2)O1 (centres undefined) , which call appears in the assay record?
Output: inactive

---

Tested on: BDF1 mice, P388 leukemia ip, median survival T/C
TEST_DESCRIPTION: NCI In Vivo Anticancer Drug Screen. Data for tumor model P388 Leukemia (intraperitoneal) in B6D2F1 (BDF1) mice
TEST_CONDITIONS: endpoint: median survival time; dose: 25.0 mg/kg/injection; schedule: Q01DX009 (ip); vehicle: water; higher = longer survival
Toxic doses and inconclusive results are not listed.
MEASURE: T/C

molecule=CC(C)(Br)C(=O)c1ccc(-c2ccccc2)cc1 observed_result="96 % of control"
molecule=CC(=O)n1ncc2ccc(N)cc21 observed_result="94 % of control"
molecule=CC(=O)Nc1ccc2[nH]c(C)cc(=O)c2c1 observed_result="94 % of control"

Your task in this section: give T/C for each listed record.
1. COc1cc2c(cc1OC)C(=O)C(c1ccc3c(c1)OCO3)CC2 (stereo not given)
2. O=C(c1ccccc1)N1CC1

Output:
1. 93 % of control
2. 101 % of control

---

Tested on: BDF1 mice, P388 leukemia ip, median survival T/C
TEST_DESCRIPTION: NCI In Vivo Anticancer Drug Screen. Data for tumor model P388 Leukemia (intraperitoneal) in B6D2F1 (BDF1) mice
TEST_CONDITIONS: endpoint: median survival time; dose: 400.0 mg/kg/injection; schedule: Q01DX009 (ip); vehicle: saline; higher = longer survival
Toxic doses and inconclusive results are not listed.
I'd be grateful if you could share measured T/C for these entries.

molecule=C/C1=C/CCCCCC1 observed_result="113 % of control"
molecule="CC1=CCC2(C)C(=O)C1CC1=C2CC(C)(C)CC1=O (stereo not given)" observed_result="100 % of control"
molecule=CCOC(=O)c1c[nH]c2ccc(OC)cc2c1=O observed_result="109 % of control"

Your task in this section: give T/C for each listed record.
1. Cc1ccc(-n2nnc3ccccc3c2=O)cc1C
2. NC(=O)CC(N)C(=O)O (stereo not given)
3. CC(C)C1CCC2=C(CCC3C(C)(C(=O)O)CCCC23C)C1 (stereo not given)
4. CNc1nc2ncn(C)c2c(=O)[nH]1
5. COC(=O)C(N)CSC (stereo not given)
6. C=CCC(CC)(C(=O)OCC)C(=O)OCC

Output:
113 % of control
100 % of control
100 % of control
95 % of control
106 % of control
122 % of control

Task: Consider the molecule "CCOc1ccc(Br)cc1/C=C/C(C)=O" and give its recorded T/C.
Output: 104 % of control
